Biological target: human mineralocorticoid receptor (MR) (Homo sapiens, UniProt P08235)
Sequence (P08235 734-984 limits assumed): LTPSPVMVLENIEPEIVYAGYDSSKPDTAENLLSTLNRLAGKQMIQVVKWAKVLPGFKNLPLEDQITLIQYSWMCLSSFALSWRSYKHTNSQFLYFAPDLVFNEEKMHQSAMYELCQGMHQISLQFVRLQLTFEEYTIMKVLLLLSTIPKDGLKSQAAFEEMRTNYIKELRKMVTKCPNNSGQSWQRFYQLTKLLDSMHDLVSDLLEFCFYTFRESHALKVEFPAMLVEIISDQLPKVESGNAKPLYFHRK
Assay: Cellular in vitro assay to determine the inhibitory MR activity (GAL4-MR chimera, luciferase reporter, CHO K1 cells)
Details: recombinant CHO K1 cells, GAL4-MR ligand-binding domain chimera, agonist aldosterone, luciferase readout
Excerpt: 1. Cellular In Vitro Assay to Determine the Inhibitory MR Activity and MR Selectivity Compared with other Steroid Hormone Receptors Antagonists of the human mineralocorticoid receptor (MR) are identified, and the activity of the compounds described herein is quantified with the aid of a recombinant cell line. The cell is originally derived from a hamster ovary epithelial cell (Chinese Hamster Ovary, CHO K1, ATCC: American Type Culture Collection, VA 20108, USA). […]
Measured Attribute: pIC50
Quick note: pIC50 values are minus log10 of concentrations in mol/L.

Here are 2 compounds together with their reported answers.
{"Compound": "CCOc1nccc2c1C(c1ccc(C#N)cc1OC)C(C#N)=C(C)N2 (stereo not drawn) [Example 25]", "pIC50": 7.06}
{"Compound": "CCOc1nccc2c1C(c1ccc(C#N)cc1CC)C(C(C)=O)=C(C)N2 (stereo not drawn) [Example 24]", "pIC50": 7.51}

Qu. // lookup pIC50 | system=human mineralocorticoid receptor (MR) (Homo sapiens, UniProt P08235) | key= CCOc1nccc2c1C(c1ccc(C#N)cc1OC)C(C#N)=C(C(F)(F)F)N2 (stereo not drawn) [Example 33]
Ans. 7.46

Qu. // lookup pIC50 | system=human mineralocorticoid receptor (MR) (Homo sapiens, UniProt P08235) | key= CCOc1nccc2c1C(c1cccc3c(=O)cc(C)oc13)C(C#N)=C(C)N2 (stereo not drawn) [Example 4]
Ans. 6.56

* * *

# IC50 annotations
Target: human mineralocorticoid receptor (MR) (Homo sapiens, UniProt P08235)
Sequence (P08235 734-984 limits assumed): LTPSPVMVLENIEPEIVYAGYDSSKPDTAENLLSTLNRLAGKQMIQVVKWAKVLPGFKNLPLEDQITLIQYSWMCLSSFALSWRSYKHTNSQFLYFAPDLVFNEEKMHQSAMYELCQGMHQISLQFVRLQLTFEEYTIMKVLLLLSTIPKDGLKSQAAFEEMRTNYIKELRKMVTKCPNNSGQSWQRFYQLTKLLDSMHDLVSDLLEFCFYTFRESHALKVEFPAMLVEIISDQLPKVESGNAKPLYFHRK
Assay: Cellular in vitro assay to determine the inhibitory MR activity (GAL4-MR chimera, luciferase reporter, CHO K1 cells)
Conditions: recombinant CHO K1 cells, GAL4-MR ligand-binding domain chimera, agonist aldosterone, luciferase readout
Give just the numeric value; µM need not be written.

{"Compound": "CCOc1nccc2c1C(c1ccc(C#N)c3ccccc13)C(C(C)=O)=C(C)N2 (centres unmarked)", "Result Units": "µM", "IC50": 0.004}
{"Compound": "CCOc1ncc(C)c2c1C(c1ccc(C#N)cc1OC)C(C#N)=C(C)N2 (centres unmarked)", "Result Units": "µM", "IC50": 0.073}
{"Compound": "CCOc1nc(C)cc2c1C(c1ccc(C#N)cc1OC)C(C#N)=C(C)N2 (centres unmarked)", "Result Units": "µM", "IC50": 0.122}
{"Compound": "CCS(=O)(=O)Oc1nccc2c1C(c1cccc3c(=O)cc(C)oc13)C(C(C)=O)=C(C)N2 (centres unmarked)", "Result Units": "µM", "IC50": 0.075}

Qu. State the recorded IC50 for this entry: CCOc1nccc2c1C(c1ccc(C#N)cc1OC(F)(F)F)C(C(C)=O)=C(C)N2 (centres unmarked)
Ans. 0.03

Origin of the recorded values: patent US8404709B2
